System: barnyard grass (Eo)
Assay: Test Example 1: herbicidal effects by flooded paddy field treatment
Type: in vivo
Design: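 0-5 growth inhibition grade; 5 = over 90%; 4 = 70-90%; 3 = 50-70%; 2 = 30-50%; 1 = 10-30%; 0 = under 10%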
Conditions: dose 100 g active ingredient per 10 ares, examined on the 21st day after treatment, standards of Table 44
Kindly supply the reported herbicidal effects, Eo (barnyard grass) values for the records listed here.
No unit in the answer, only the number.

Inquiry: herbicidal effects, Eo (barnyard grass) for CCCc1ncncc1C(CCC)N(C)C(=O)Cc1ccc(F)cc1 (racemic) [1-493] ?
Reply text: 5

Inquiry: herbicidal effects, Eo (barnyard grass) for CSCC(c1cncnc1C(F)(F)F)N(C)C(=O)Cc1ccc(Cl)cc1 (racemic) [1-414] ?
Reply text: 5

Inquiry: herbicidal effects, Eo (barnyard grass) for CCc1ncncc1C(C(C)C)N(C)C(=O)Cc1ccc(C)cc1 (racemic) [1-435] ?
Reply text: 5

Inquiry: herbicidal effects, Eo (barnyard grass) for CN(C(=O)Cc1ccc(F)cc1)C(c1cncnc1C1(C)CC1)C1(C)CC1 (racemic) [1-473] ?
Reply text: 5

Inquiry: herbicidal effects, Eo (barnyard grass) for CC(C)C(c1cncnc1C(F)(F)F)N(C)C(=O)Cc1ccc(Cl)c(F)c1 (racemic) [1-180] ?
Reply text: 5

Inquiry: herbicidal effects, Eo (barnyard grass) for CC(C)C(c1cncnc1C(F)(F)F)N(C)C(=O)Cc1cc(F)cc(F)c1 (racemic) [Compound 1-167] ?
Reply text: 5

Inquiry: herbicidal effects, Eo (barnyard grass) for CN(C(=O)Cc1ccc(Cl)cc1F)C(c1ccccc1)c1cncnc1C(F)(F)F (racemic) [Compound 1-250] ?
Reply text: 5

Inquiry: herbicidal effects, Eo (barnyard grass) for CCc1ncncc1C(C(C)C)N(C)C(=O)N(C)c1ccc(C)cc1 (racemic) [1-541] ?
Reply text: 5

Inquiry: herbicidal effects, Eo (barnyard grass) for COC(=O)c1ncncc1C(C(C)C)N(C)C(=O)C(C)c1ccc(Cl)cc1 (single isomer, unassigned) [Compound 1-592] ?
Reply text: 5

Inquiry: herbicidal effects, Eo (barnyard grass) for CCOC(=O)c1ncncc1C(C(C)C)N(C)C(=O)C(C)c1ccc(Cl)cc1 (single isomer, unassigned) [1-594] ?
Reply text: 5

Inquiry: herbicidal effects, Eo (barnyard grass) for CC(C)C(c1cncnc1-c1ccccc1)N(C)C(=O)Cc1ccc(Cl)cc1 (racemic) [1-324] ?
Reply text: 5

Inquiry: herbicidal effects, Eo (barnyard grass) for CC(C)C(c1cncnc1C(F)(F)Cl)N(C)C(=O)Oc1ccc(Cl)cc1 (racemic) [1-185] ?
Reply text: 5

Inquiry: herbicidal effects, Eo (barnyard grass) for CC(C)C(c1cncnc1C(F)(F)F)N(C)C(=S)Cc1ccc(Cl)cc1 (racemic) [Compound 1-144] ?
Reply text: 5

Inquiry: herbicidal effects, Eo (barnyard grass) for Cc1ncncc1C(N(C)C(=O)Cc1ccc(F)cc1)C(C)(C)C (racemic) [Compound 1-160] ?
Reply text: 5

Inquiry: herbicidal effects, Eo (barnyard grass) for CC(C)C(c1cncnc1C=NO)N(C)C(=O)Cc1ccccc1 (centres unmarked) [Compound 1-500] ?
Reply text: 5

Inquiry: herbicidal effects, Eo (barnyard grass) for COc1ccc(C(C)C(=O)N(C)C(c2cncnc2C(F)(F)F)C(C)C)cc1 (mixture of isomers) [1-192] ?
Reply text: 5

Inquiry: herbicidal effects, Eo (barnyard grass) for COc1ncncc1C(C(C)C)N(C)C(=O)Cc1ccc(F)cc1 (racemic) [1-402] ?
Reply text: 5

meta.source: patent US6806230B1
